assay: Cycloheximide Counterscreen for Small Molecule Inhibitors of Shiga Toxin; details: cell reporter, cycloheximide protein synthesis inhibition counterscreen; also: read at 38.3 µM for the half of the compounds with a filed dose
Screen size: about 300,000 compounds; about 37,000 (12%) were called active. Rule as the data show it: active = max response mostly above about 13% (no sharp cut-off); inactive = mostly below about 14%. This is one part of a sample in which actives are shown more often than they occur.
Labels: active, inactive

compound=O=C1Nc2cc(C(=O)N3CCC(N4CCCCC4)CC3)ccc2S/C1=C\c1ccccc1 class_name=inactive
compound=COc1ccc(NC(=O)CNC(=O)Cn2ccc3ccccc3c2=O)c(OC)c1 class_name=inactive
compound=O=[N+]([O-])c1cccc(/C([O-])=C(/C(=S)Nc2ccccc2F)[n+]2ccccc2)c1 class_name=active
compound="CCC(C)(C)NC(=O)C(c1ccc(O)cc1)N(Cc1ccco1)C(=O)CCC(=O)Nc1ccccn1 (centres undefined)" class_name=inactive
compound=Cc1ccc(/C([O-])=C(/C(=S)NCc2ccco2)[n+]2ccccc2)cc1[N+](=O)[O-] class_name=inactive
compound=CC(C)(C)NC(=O)c1ccc(Cn2cc(C(F)(F)F)ccc2=O)cc1 class_name=inactive
compound="CCOC(=O)C1CCCN(C(=O)COc2ccc(N(C)S(=O)(=O)c3ccc(C)cc3)cc2)C1 (centres undefined)" class_name=inactive
compound="CCC(C)NCC(=O)Nc1ccc([N+](=O)[O-])cc1C(=O)Nc1ccccc1F (centres undefined)" class_name=inactive
compound="O=C(OCc1ccc([N+](=O)[O-])cc1)C1CC(=O)N(Cc2ccccc2Cl)C1 (centres undefined)" class_name=inactive
